# Lookup of reported MIC P. aeruginosa keyed by entry
Tested on: P. aeruginosa
SETUP_CONDITIONS: 18 h
Peptide text beside a SMILES is read from it.
MEASUREMENT_KIND: MIC P. aeruginosa (µg/mL)

compound="N=C(N)NCCC[C@H](NC(=O)[C@H](Cc1c[nH]c2ccccc12)NC(=O)[C@H](CCCCN)NC(=O)[C@H](Cc1c[nH]c2ccccc12)NC(=O)[C@H](CCCNC(=N)N)NC(=O)[C@@H](N)Cc1c[nH]c2ccccc12)C(=O)N[C@@H](Cc1c[nH]c2ccccc12)C(=O)N[C@@H](CCCCN)C(N)=O [(WRWK)2-NH2] (H-WRWKWRWK-NH2; N-terminus assumed)" measurement_kind="MIC P. aeruginosa" result_qualifier== result=125
compound="CC(C)[C@H](N)C(=O)N[C@@H](CCCNC(=N)N)C(=O)N[C@H](C(=O)N[C@@H](CCCCN)C(=O)N[C@H](C(=O)N[C@@H](CCCNC(=N)N)C(=O)N[C@H](C(=O)N[C@@H](CCCCN)C(=O)N[C@H](C(=O)N[C@@H](CCCNC(=N)N)C(=O)N[C@H](C(=O)N[C@@H](CCCCN)C(N)=O)C(C)C)C(C)C)C(C)C)C(C)C)C(C)C [(VRVK)3-NH2] (H-VRVKVRVKVRVK-NH2; N-terminus assumed)" measurement_kind="MIC P. aeruginosa" result_qualifier== result=62.5
compound="N=C(N)NCCC[C@H](NC(=O)[C@H](Cc1ccccc1)NC(=O)[C@H](CCCCN)NC(=O)[C@H](Cc1ccccc1)NC(=O)[C@H](CCCNC(=N)N)NC(=O)[C@@H](N)Cc1ccccc1)C(=O)N[C@@H](Cc1ccccc1)C(=O)N[C@@H](CCCCN)C(N)=O [(FRFK)2-NH2] (H-FRFKFRFK-NH2; N-terminus assumed)" measurement_kind="MIC P. aeruginosa" result_qualifier== result=62.5
compound="CC(C)[C@H](N)C(=O)N[C@@H](CCCNC(=N)N)C(=O)N[C@H](C(=O)N[C@@H](CCCCN)C(=O)N[C@H](C(=O)N[C@@H](CCCNC(=N)N)C(=O)N[C@H](C(=O)N[C@@H](CCCCN)C(N)=O)C(C)C)C(C)C)C(C)C [(VRVK)2-NH2] (H-VRVKVRVK-NH2; N-terminus assumed)" measurement_kind="MIC P. aeruginosa" result_qualifier=> result=500

* * *

System: P. aeruginosa
SETUP_CONDITIONS: 18 h
Peptide text beside a SMILES is read from it.
Overview of recorded MIC P. aeruginosa for various compounds
MEASUREMENT_KIND: MIC P. aeruginosa (µg/mL)

compound="CC[C@H](C)[C@H](N)C(=O)N[C@@H](CCCNC(=N)N)C(=O)N[C@H](C(=O)N[C@@H](CCCCN)C(=O)N[C@H](C(=O)N[C@@H](CCCNC(=N)N)C(=O)N[C@H](C(=O)N[C@@H](CCCCN)C(N)=O)C(C)C)[C@@H](C)CC)C(C)C [(IRVK)2-NH2] (H-IRVKIRVK-NH2; N-terminus assumed)" unit_info=µg/mL result=62.5
compound="CC[C@H](C)[C@H](N)C(=O)N[C@@H](CCCNC(=N)N)C(=O)N[C@H](C(=O)N[C@@H](CCCCN)C(=O)N[C@H](C(=O)N[C@@H](CCCNC(=N)N)C(=O)N[C@H](C(=O)N[C@@H](CCCCN)C(=O)N[C@H](C(=O)N[C@@H](CCCNC(=N)N)C(=O)N[C@H](C(=O)N[C@@H](CCCCN)C(N)=O)C(C)C)[C@@H](C)CC)C(C)C)[C@@H](C)CC)C(C)C [(IRVK)3-NH2] (H-IRVKIRVKIRVK-NH2; N-terminus assumed)" unit_info=µg/mL result=62.5
compound="CC[C@H](C)[C@H](N)C(=O)N[C@@H](CCCNC(=N)N)C(=O)N[C@H](C(=O)N[C@@H](CCCCN)C(=O)N[C@H](C(=O)N[C@@H](CCCNC(=N)N)C(=O)N[C@H](C(=O)N[C@@H](CCCCN)C(N)=O)[C@@H](C)CC)[C@@H](C)CC)[C@@H](C)CC [(IRIK)2-NH2] (H-IRIKIRIK-NH2; N-terminus assumed)" unit_info=µg/mL result=31.3
compound="CC[C@H](C)[C@H](N)C(=O)N[C@@H](CCCCN)C(=O)N[C@H](C(=O)N[C@@H](CCCCN)C(=O)N[C@H](C(=O)N[C@@H](CCCCN)C(=O)N[C@H](C(=O)N[C@@H](CCCCN)C(N)=O)[C@@H](C)CC)[C@@H](C)CC)[C@@H](C)CC [(IKIK)2-NH2] (H-IKIKIKIK-NH2; N-terminus assumed)" unit_info=µg/mL result=31.3
compound="CC[C@H](C)[C@H](N)C(=O)N[C@@H](CCCNC(=N)N)C(=O)N[C@H](C(=O)N[C@@H](CCCNC(=N)N)C(=O)N[C@H](C(=O)N[C@@H](CCCNC(=N)N)C(=O)N[C@H](C(=O)N[C@@H](CCCNC(=N)N)C(N)=O)[C@@H](C)CC)[C@@H](C)CC)[C@@H](C)CC [(IRIR)2-NH2] (H-IRIRIRIR-NH2; N-terminus assumed)" unit_info=µg/mL result=7.8
compound="CC[C@H](C)[C@H](N)C(=O)N[C@@H](CCCNC(=N)N)C(=O)N[C@H](C(=O)N[C@@H](CCCCN)C(=O)N[C@H](C(=O)N[C@@H](CCCNC(=N)N)C(=O)N[C@H](C(=O)N[C@@H](CCCCN)C(=O)N[C@H](C(=O)N[C@@H](CCCNC(=N)N)C(=O)N[C@H](C(=O)N[C@@H](CCCCN)C(N)=O)[C@@H](C)CC)[C@@H](C)CC)[C@@H](C)CC)[C@@H](C)CC)[C@@H](C)CC [(IRIK)3-NH2] (H-IRIKIRIKIRIK-NH2; N-terminus assumed)" unit_info=µg/mL result=500

* * *

Below, each entry is listed with its recorded MIC S. aureus.
Tested on: S. aureus
SETUP_CONDITIONS: 18 h
Peptide text beside a SMILES is read from it.
MEASUREMENT_KIND: MIC S. aureus (µg/mL)

compound="CC[C@H](C)[C@H](N)C(=O)N[C@@H](CCCCN)C(=O)N[C@H](C(=O)N[C@@H](CCCCN)C(=O)N[C@H](C(=O)N[C@@H](CCCCN)C(=O)N[C@H](C(=O)N[C@@H](CCCCN)C(N)=O)[C@@H](C)CC)[C@@H](C)CC)[C@@H](C)CC [(IKIK)2-NH2] (H-IKIKIKIK-NH2; N-terminus assumed)" assay_target="S. aureus" unit_info=µg/mL result_qualifier== result=125
compound="CC[C@H](C)[C@H](N)C(=O)N[C@@H](CCCNC(=N)N)C(=O)N[C@H](C(=O)N[C@@H](CCCCN)C(=O)N[C@H](C(=O)N[C@@H](CCCNC(=N)N)C(=O)N[C@H](C(=O)N[C@@H](CCCCN)C(N)=O)C(C)C)[C@@H](C)CC)C(C)C [(IRVK)2-NH2] (H-IRVKIRVK-NH2; N-terminus assumed)" assay_target="S. aureus" unit_info=µg/mL result_qualifier== result=250
compound="CC[C@H](C)[C@H](N)C(=O)N[C@@H](CCCNC(=N)N)C(=O)N[C@H](C(=O)N[C@@H](CCCCN)C(=O)N[C@H](C(=O)N[C@@H](CCCNC(=N)N)C(=O)N[C@H](C(=O)N[C@@H](CCCCN)C(=O)N[C@H](C(=O)N[C@@H](CCCNC(=N)N)C(=O)N[C@H](C(=O)N[C@@H](CCCCN)C(N)=O)C(C)C)[C@@H](C)CC)C(C)C)[C@@H](C)CC)C(C)C [(IRVK)3-NH2] (H-IRVKIRVKIRVK-NH2; N-terminus assumed)" assay_target="S. aureus" unit_info=µg/mL result_qualifier== result=31.3
compound="CC[C@H](C)[C@H](N)C(=O)N[C@@H](CCCNC(=N)N)C(=O)N[C@H](C(=O)N[C@@H](CCCCN)C(=O)N[C@H](C(=O)N[C@@H](CCCNC(=N)N)C(=O)N[C@H](C(=O)N[C@@H](CCCCN)C(N)=O)[C@@H](C)CC)[C@@H](C)CC)[C@@H](C)CC [(IRIK)2-NH2] (H-IRIKIRIK-NH2; N-terminus assumed)" assay_target="S. aureus" unit_info=µg/mL result_qualifier== result=62.5
compound="CC[C@H](C)[C@H](N)C(=O)N[C@@H](CCCNC(=N)N)C(=O)N[C@H](C(=O)N[C@@H](CCCNC(=N)N)C(=O)N[C@H](C(=O)N[C@@H](CCCNC(=N)N)C(=O)N[C@H](C(=O)N[C@@H](CCCNC(=N)N)C(N)=O)[C@@H](C)CC)[C@@H](C)CC)[C@@H](C)CC [(IRIR)2-NH2] (H-IRIRIRIR-NH2; N-terminus assumed)" assay_target="S. aureus" unit_info=µg/mL result_qualifier== result=31.3
compound="N=C(N)NCCC[C@H](NC(=O)[C@H](Cc1ccccc1)NC(=O)[C@H](CCCCN)NC(=O)[C@H](Cc1ccccc1)NC(=O)[C@H](CCCNC(=N)N)NC(=O)[C@@H](N)Cc1ccccc1)C(=O)N[C@@H](Cc1ccccc1)C(=O)N[C@@H](CCCCN)C(N)=O [(FRFK)2-NH2] (H-FRFKFRFK-NH2; N-terminus assumed)" assay_target="S. aureus" unit_info=µg/mL result_qualifier== result=250
compound="CC[C@H](C)[C@H](N)C(=O)N[C@@H](CCCNC(=N)N)C(=O)N[C@H](C(=O)N[C@@H](CCCCN)C(=O)N[C@H](C(=O)N[C@@H](CCCNC(=N)N)C(=O)N[C@H](C(=O)N[C@@H](CCCCN)C(=O)N[C@H](C(=O)N[C@@H](CCCNC(=N)N)C(=O)N[C@H](C(=O)N[C@@H](CCCCN)C(N)=O)[C@@H](C)CC)[C@@H](C)CC)[C@@H](C)CC)[C@@H](C)CC)[C@@H](C)CC [(IRIK)3-NH2] (H-IRIKIRIKIRIK-NH2; N-terminus assumed)" assay_target="S. aureus" unit_info=µg/mL result_qualifier== result=62.5
compound="CC(C)[C@H](N)C(=O)N[C@@H](CCCNC(=N)N)C(=O)N[C@H](C(=O)N[C@@H](CCCCN)C(=O)N[C@H](C(=O)N[C@@H](CCCNC(=N)N)C(=O)N[C@H](C(=O)N[C@@H](CCCCN)C(N)=O)C(C)C)C(C)C)C(C)C [(VRVK)2-NH2] (H-VRVKVRVK-NH2; N-terminus assumed)" assay_target="S. aureus" unit_info=µg/mL result_qualifier=> result=500
compound="N=C(N)NCCC[C@H](NC(=O)[C@H](Cc1c[nH]c2ccccc12)NC(=O)[C@H](CCCCN)NC(=O)[C@H](Cc1c[nH]c2ccccc12)NC(=O)[C@H](CCCNC(=N)N)NC(=O)[C@@H](N)Cc1c[nH]c2ccccc12)C(=O)N[C@@H](Cc1c[nH]c2ccccc12)C(=O)N[C@@H](CCCCN)C(N)=O [(WRWK)2-NH2] (H-WRWKWRWK-NH2; N-terminus assumed)" assay_target="S. aureus" unit_info=µg/mL result_qualifier== result=62.5
compound="CC(C)[C@H](N)C(=O)N[C@@H](CCCNC(=N)N)C(=O)N[C@H](C(=O)N[C@@H](CCCCN)C(=O)N[C@H](C(=O)N[C@@H](CCCNC(=N)N)C(=O)N[C@H](C(=O)N[C@@H](CCCCN)C(=O)N[C@H](C(=O)N[C@@H](CCCNC(=N)N)C(=O)N[C@H](C(=O)N[C@@H](CCCCN)C(N)=O)C(C)C)C(C)C)C(C)C)C(C)C)C(C)C [(VRVK)3-NH2] (H-VRVKVRVKVRVK-NH2; N-terminus assumed)" assay_target="S. aureus" unit_info=µg/mL result_qualifier== result=62.5

Values were extracted from patent US9221875B2.
